Provenance of the data: paper PMC7031742

Property: MRT; scope: individual compounds
Protocol notes: Pharmacokinetics of ginsenosides in human plasma after single or repeated
Assay type: in vivo
Measurement context: male, human, plasma, po, 3 pouches of red ginseng extract
Numbers only; they are read as h.

Consider the worked cases shown below.
| Structure string | MRT, h |
| --- | --- |
| CC(C)=CCC[C@](C)(O[C@@H]1O[C@H](CO)[C@@H](O)[C@H](O)[C@H]1O)[C@H]1CC[C@]2(C)[C@@H]1[C@H](O)C[C@@H]1[C@@]3(C)CC[C@H](O[C@@H]4O[C@H](CO)[C@@H](O)[C@H](O)[C@H]4O[C@@H]4O[C@H](CO)[C@@H](O)[C@H](O)[C@H]4O)C(C)(C)[C@@H]3CC[C@]12C | 24.7 |
| CC(C)=CCC[C@](C)(O[C@@H]1O[C@H](CO[C@@H]2O[C@H](CO)[C@@H](O)[C@H](O)[C@H]2O)[C@@H](O)[C@H](O)[C@H]1O)[C@H]1CC[C@]2(C)[C@@H]1[C@H](O)C[C@@H]1[C@@]3(C)CC[C@H](O[C@@H]4O[C@H](CO)[C@@H](O)[C@H](O)[C@H]4O[C@@H]4O[C@H](CO)[C@@H](O)[C@H](O)[C@H]4O)C(C)(C)[C@@H]3CC[C@]12C | 26.8 |
| CC(C)=CCC[C@](C)(O[C@@H]1O[C@H](CO[C@@H]2OC[C@H](O)[C@H](O)[C@H]2O)[C@@H](O)[C@H](O)[C@H]1O)[C@H]1CC[C@]2(C)[C@@H]1[C@H](O)C[C@@H]1[C@@]3(C)CC[C@H](O[C@@H]4O[C@H](CO)[C@@H](O)[C@H](O)[C@H]4O[C@@H]4O[C@H](CO)[C@@H](O)[C@H](O)[C@H]4O)C(C)(C)[C@@H]3CC[C@]12C | 26.8 |

Next compound, MRT to be filled in.
Q. Requested read-out: MRT. Entry: CC(C)=CCC[C@](C)(O[C@@H]1O[C@H](CO[C@@H]2O[C@@H](CO)[C@H](O)[C@H]2O)[C@@H](O)[C@H](O)[C@H]1O)[C@H]1CC[C@]2(C)[C@@H]1[C@H](O)C[C@@H]1[C@@]3(C)CC[C@H](O[C@@H]4O[C@H](CO)[C@@H](O)[C@H](O)[C@H]4O[C@@H]4O[C@H](CO)[C@@H](O)[C@H](O)[C@H]4O)C(C)(C)[C@@H]3CC[C@]12C
A. 27.4

###

Protocol notes: Permeability of ginsenoside in Caco-2 cells
Assay type: in vitro ADME
Measurement context: human, Caco-2
Recorded endpoint: Papp A→B at 1 h, 10 μM (×10⁻⁶ cm/s)
Numbers only; they are read as ×10⁻⁶ cm/s.

| Compound | Scale unit | Papp A→B at 1 h, 10 μM |
| --- | --- | --- |
| CC(C)=CCC[C@](C)(O[C@@H]1O[C@H](CO[C@@H]2OC[C@H](O)[C@H](O)[C@H]2O)[C@@H](O)[C@H](O)[C@H]1O)[C@H]1CC[C@]2(C)[C@@H]1[C@H](O)C[C@@H]1[C@@]3(C)CC[C@H](O[C@@H]4O[C@H](CO)[C@@H](O)[C@H](O)[C@H]4O[C@@H]4O[C@H](CO)[C@@H](O)[C@H](O)[C@H]4O)C(C)(C)[C@@H]3CC[C@]12C [Rb2] | ×10⁻⁶ cm/s | 0.28 |
| CC(C)=CCC[C@](C)(O[C@@H]1O[C@H](CO[C@@H]2O[C@@H](CO)[C@H](O)[C@H]2O)[C@@H](O)[C@H](O)[C@H]1O)[C@H]1CC[C@]2(C)[C@@H]1[C@H](O)C[C@@H]1[C@@]3(C)CC[C@H](O[C@@H]4O[C@H](CO)[C@@H](O)[C@H](O)[C@H]4O[C@@H]4O[C@H](CO)[C@@H](O)[C@H](O)[C@H]4O)C(C)(C)[C@@H]3CC[C@]12C [Rc] | ×10⁻⁶ cm/s | 0.28 |

Next compound, Papp A→B at 1 h, 10 μM to be filled in.
Q. Requested read-out: Papp A→B at 1 h, 10 μM. Entry: CC(C)=CCC[C@](C)(O[C@@H]1O[C@H](CO)[C@@H](O)[C@H](O)[C@H]1O)[C@H]1CC[C@]2(C)[C@@H]1[C@H](O)C[C@@H]1[C@@]3(C)CC[C@H](O[C@@H]4O[C@H](CO)[C@@H](O)[C@H](O)[C@H]4O[C@@H]4O[C@H](CO)[C@@H](O)[C@H](O)[C@H]4O)C(C)(C)[C@@H]3CC[C@]12C [Rd]
A. 0.22
